Measured values drawn from patent US7223888B2 for this set.

# system: hDOR-1 (Homo sapiens, UniProt P41143)
# Construct: purchased Amersham Biosciences; host or cells: stably transfected HEK-293 cells (membrane preparation)
# Sequence (P41143 whole entry): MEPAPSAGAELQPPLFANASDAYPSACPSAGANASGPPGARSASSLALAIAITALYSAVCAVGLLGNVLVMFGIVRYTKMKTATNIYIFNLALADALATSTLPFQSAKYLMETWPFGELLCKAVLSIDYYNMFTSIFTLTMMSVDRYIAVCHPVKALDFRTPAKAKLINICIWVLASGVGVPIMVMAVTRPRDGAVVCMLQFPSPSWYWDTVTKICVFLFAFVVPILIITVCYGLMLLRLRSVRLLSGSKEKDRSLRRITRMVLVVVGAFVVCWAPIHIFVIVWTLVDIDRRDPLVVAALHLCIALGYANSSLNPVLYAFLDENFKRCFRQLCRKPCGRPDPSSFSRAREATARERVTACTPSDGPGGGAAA
# experiment: Opioid receptor competitive binding assay, DOR
# conditionSet: Table 12; selectivity for MOR versus DOR (3H-DPDPE, hDOR-1)
parameter: Ki DOR/Ki MOR

- NC(Cc1ccc(O)cc1)C(O)C/C=C/C(O)C(Cc1ccccc1)C(=O)NC(CO)Cc1ccccc1 (single isomer, unassigned) [(S,R,R,R)-11]: 34
- NC(=O)C(Cc1ccccc1)NC(=O)C(Cc1ccccc1)C(O)/C=C/CC(O)C(N)Cc1ccc(O)cc1 (single isomer, unassigned) [(S,S,R,R)-2]: 45
- NC(=O)C(Cc1ccccc1)NC(=O)C(Cc1ccccc1)C(O)/C=C\CC(O)C(N)Cc1ccc(O)cc1 (single isomer, unassigned) [(S,S,R,R)-9]: 58
- NC(=O)C(Cc1ccccc1)NC(=O)C(Cc1ccccc1)C(O)/C=C/CC(O)C(N)Cc1ccc(O)cc1 (single isomer, unassigned) [(S,R,S,R)-2]: 5
- NC(Cc1ccc(O)cc1)C(O)C/C=C/C(O)C(Cc1ccccc1)C(=O)NCCc1ccccc1 (single isomer, unassigned) [(S,S,S,R)-10]: 170
- C=CC(O)C(Cc1ccccc1)NC(=O)C(Cc1ccccc1)C(O)/C=C/CC(O)C(N)Cc1ccc(O)cc1 (single isomer, unassigned) [(S,S,R,R)-12]: 28
- NC(=O)C(Cc1ccccc1)NC(=O)C(Cc1ccccc1)C(O)/C=C\CC(O)C(N)Cc1ccc(O)cc1 (single isomer, unassigned) [(S,R,S,R)-9]: 39
- NC(=O)C(Cc1ccccc1)NC(=O)C(Cc1ccccc1)C(O)/C=C/CC(O)C(N)Cc1ccc(O)cc1 (single isomer, unassigned) [(S,S,R,S)-2]: 86
- NC(=O)C(Cc1ccccc1)NC(=O)C(Cc1ccccc1)C(O)/C=C/CC(O)C(N)Cc1ccc(O)cc1 (single isomer, unassigned) [(S,S,S,R)-2]: 57
- NC(=O)C(Cc1ccccc1)NC(=O)C(Cc1ccccc1)C(O)/C=C/CC(O)C(N)Cc1ccc(O)cc1 (single isomer, unassigned) [(S,R,R,R)-2]: 21
- C=CC(O)C(Cc1ccccc1)NC(=O)C(Cc1ccccc1)C(O)/C=C/CC(O)C(N)Cc1ccc(O)cc1 (single isomer, unassigned) [(S,R,R,R)-12]: 15
- C=CC(O)C(Cc1ccccc1)NC(=O)C(Cc1ccccc1)C(O)/C=C/CC(O)C(N)Cc1ccc(O)cc1 (single isomer, unassigned) [(S,S,S,R)-12]: 34
- NC(Cc1ccc(O)cc1)C(O)C/C=C/C(O)C(Cc1ccccc1)C(=O)NCCc1ccccc1 (single isomer, unassigned) [(S,S,R,R)-10]: 42
- NC(=O)C(Cc1ccccc1)NC(=O)C(Cc1ccccc1)C(O)/C=C\CC(O)C(N)Cc1ccc(O)cc1 (single isomer, unassigned) [(S,S,S,R)-9]: 6
- NC(=O)C(Cc1ccccc1)NC(=O)C(Cc1ccccc1)C(O)/C=C\CC(O)C(N)Cc1ccc(O)cc1 (single isomer, unassigned) [(S,R,R,R)-9]: 23
- NC(Cc1ccc(O)cc1)C(O)C/C=C/C(O)C(Cc1ccccc1)C(=O)NC(CO)Cc1ccccc1 (single isomer, unassigned) [(S,S,R,R)-11]: 39
- NC(Cc1ccc(O)cc1)C(O)C/C=C/C(O)C(Cc1ccccc1)C(=O)NC(CO)Cc1ccccc1 (single isomer, unassigned) [(S,S,S,R)-11]: 110
